measurementDescription: Solubility assessment of Form I, gravimetric, slurried 48 h in solvents/solvent mixtures
Type: physicochemical
assaySetup: organic solvent or mixture, thermodynamic from solid; Acetone, 15° C.; read-out: Solubility
attributeMeasured: solubility at 48 h (µg/mL)
Answers are plain numbers, in µg/mL.

Look at this compound and give its reported solubility at 48 h. O=C(CCCCCCNC(=O)c1cnc(N(c2ccccc2)c2ccccc2Cl)nc1)NO [Form I] 2000

---

measurementDescription: Solubility assessment of Form I, gravimetric, slurried 48 h in solvents/solvent mixtures
Format: physicochemical
assaySetup: organic solvent or mixture, thermodynamic from solid; Isopropanol (IPA), 15° C.; read-out: Solubility
attributeMeasured: solubility at 48 h
Answer with the value and then the unit.

Look at this compound and give its reported solubility at 48 h. O=C(CCCCCCNC(=O)c1cnc(N(c2ccccc2)c2ccccc2Cl)nc1)NO [Form I] 1000 µg/mL

---

measurementDescription: Solubility assessment of Form I, gravimetric, slurried 48 h in solvents/solvent mixtures
Format: physicochemical
assaySetup: organic solvent or mixture, thermodynamic from solid; EtOH, temperature not stated; read-out: Solubility (moderately soluble)
Procedure: The Solubility of Form I was measured gravimetrically in 15 different solvents and solvent mixtures at 15 and 45° C. About 75 mg of the compound was dispensed in 10 volumes (750 μL) of the solvent/solvent mixture and slurried for 48 h. The vials were centrifuged. The supernatant was collected and left for slow evaporation under vacuum at 45° C. The solids obtained after evaporation were used to determine the solubility of Form I and analyzed by XRPD for any new forms.
attributeMeasured: solubility at 48 h

Look at this molecule and give its reported solubility at 48 h. O=C(CCCCCCNC(=O)c1cnc(N(c2ccccc2)c2ccccc2Cl)nc1)NO [Form I] 10 to 55 mg/mL

---

measurementDescription: Solubility assessment of Form I, gravimetric, slurried 48 h in solvents/solvent mixtures
Format: physicochemical
assaySetup: organic solvent or mixture, thermodynamic from solid; Acetone, 45° C.; read-out: Solubility
attributeMeasured: solubility at 48 h (mg/mL)
Numbers only, in mg/mL.

Look at this molecule and give its reported solubility at 48 h. O=C(CCCCCCNC(=O)c1cnc(N(c2ccccc2)c2ccccc2Cl)nc1)NO [Form I] 11
